Data provenance: PubChem BioAssay (NCI)

system: UO-31 renal; assay: NCI tumour cell line growth inhibition, 48 h
Collected GI50 values appear next to each entry.

COMPOUND	GI50
COc1ccc(-c2nc(/C=N/Nc3cc(C)nc4ccc(Cl)cc34)c(C)o2)cc1	1.6 µM
CCC(C)[C@H]1O[C@]2(C=C[C@@H]1C)C[C@@H]1C[C@@H](C/C=C(\C)[C@@H](OC3C[C@H](OC)C(O[C@H]4C[C@H](OC)[C@@H](O)[C@H](C)O4)[C@H](C)O3)[C@@H](C)/C=C/C=C3\CO[C@@H]4[C@H](O)C(C)=C[C@@H](C(=O)O1)[C@]34O)O2 (stereo partly specified)	0.807 µM
C1COCCN1.C1COCCN1.NC1CCCCC1N.[Cl-].[Pt+2] (stereo unspecified)	> 100 µM
CCOC(=O)c1c2c(n(Cc3ccc(Cl)cc3Cl)c1C)-c1nc[nH]c1C(=O)C2=O	12.4 µM
N.N.N.N.N.[Cl-].[Co+3].c1ccc(-c2nn[n-]n2)cc1	> 100 µM
O=c1oc(Cl)c(Cl)c2ccccc12	22.4 µM

* * *

system: A549 NSCLC; test: NCI tumour cell line growth inhibition, 48 h
Known TGI of a selection of molecules
REPORTED_ENDPOINT: TGI

>>> df
                                   molecule  result_value
0  Fc1ccc(C(OCCN2CCC3CCC(C2)N3C/C=C/c2ccco2)c2ccc(F)cc2)cc1 (stereo not given)       29.5 µM
1  O=C(O)C1OC1(c1cccc(Cl)c1)c1ccccc1Cl (stereo not given)      > 100 µM
2  C=CCC1(O)c2ccccc2C(=O)c2c(NCCN(CC(=O)OCC)CC(=O)OCC)cccc21 (stereo not given)      > 100 µM
3  O=c1cc(-c2ccccc2F)[nH]c2ccc(N3CCCC3)cc12      > 100 µM
4  N#CCCN(CCCN(CCCN(C(=O)Nc1ccccc1)c1ccccc1)C(=O)Nc1ccccc1)C(=O)Nc1ccccc1      > 100 µM

* * *

tested on: MDA-MB-231 breast; assay: NCI tumour cell line growth inhibition, 48 h; in the data active = GI50 below about 0.43 µM; inactive = the rest
Outcomes: active, inactive

>>> df
                                   compound  class_label
0  COC1=CC(c2ccc[nH]2)=N/C1=C\c1[nH]c(C)c(C(=O)CCCCC(=O)NC(C)(C)C)c1C     inactive
1  Cc1ccc(C(CC(=O)c2ccccc2)C2C(=O)NC(=O)NC2=O)cc1 (stereo not given)     inactive
2  COc1ccc(-c2nc(/C=N/Nc3cc(C)nc4ccc(Cl)cc34)c(C)o2)cc1     inactive
3  COc1cccc2c1ccc1nc3cccc(C(=O)N[C@H](C)CN(C)C)c3nc12       active
4  C[C@]12CCc3sc(NCCc4ccccc4)nc3C1=CC[C@@H]1[C@@H]2CC[C@]2(C)C(=O)CC[C@@H]12     inactive
5          CCCc1cc(=O)[nH]c(-n2nc(C)cc2C)n1     inactive
6  C=CCC1(O)c2ccccc2C(=O)c2c(NCCN(CC(=O)OCC)CC(=O)OCC)cccc21 (stereo not given)     inactive
7   NC(=O)c1ccccc1Nc1ccc2nnc(-c3ccncc3)n2n1     inactive
8  COc1cccc(-n2nc(C)c3c(N/N=C(\C)c4ccncc4)ncnc32)c1     inactive
9  CCC1CN2C(=N1)c1ccccc1-c1cc(Cl)ccc12 (stereo not given)     inactive

* * *

system: NCI/ADR-RES ovarian; experiment: NCI tumour cell line growth inhibition, 48 h; in the data active = GI50 below about 0.43 µM; inactive = the rest
Labels: active, inactive

MOLECULE	CLASS_LABEL
COC1/C=C/C(C)C(C(C)C(OC)C(C)CCC(=O)C(C)C(C/C=C/N(C)C=O)OC)OC(=O)/C=C/C=C(\C)CC(OC)CC2=CC(=O)O[C@H](C2)C(C)C(OC)CC(OC)/C=C/C(C)C(OC)C1 (stereo partly drawn)	active
C=C1/C(=C\C=C2/CCC[C@]3(C)[C@@H]([C@H](C)CCCC(C)(C)O)CC[C@@H]23)C[C@@H](OC(=O)CBr)C[C@@H]1O	inactive
COc1ccc(C(=O)/C=C/c2cccc([N+](=O)[O-])c2)c(OC)c1	inactive
O=c1ccn(C2CC(O)C(CO)O2)c(=O)[nH]1 (stereo not drawn)	inactive
CCOC(=O)c1cc2c(n1Cc1cccc(OC)c1)-c1oncc1CCC2	inactive
Cc1cc(NCCN(C(C)C)C(C)C)nc(/N=C(\N)Nc2ccc(Cl)c(C(F)(F)F)c2)n1	inactive
CCn1cnc(C[C@H](NC(=O)[C@@H](NC(=O)Nc2cc(C(F)(F)F)cc(C(F)(F)F)c2)C(C)C)C(=O)OC)c1	inactive
O=C(Cn1c(=O)c(-c2ccccc2)nc2ccccc21)Nc1ccc(F)cc1	inactive

* * *

tested on: EKVX NSCLC; test: NCI tumour cell line growth inhibition, 48 h
REPORTED_ENDPOINT: TGI

                                    compound  result_value
 0  Cc1cc(NCCN(C(C)C)C(C)C)nc(/N=C(\N)Nc2ccc(Cl)c(C(F)(F)F)c2)n1       3.75 µM
 1  Clc1ccc(N=Nc2nc3ccccc3nc2N=Nc2ccc(Cl)cc2Cl)c(Cl)c1      > 100 µM
 2    O=C(CCc1ccc(O)c(O)c1)NCCc1cc(O)cc(O)c1      > 100 µM
 3  COc1cccc([C@H]2C/C(=N\NC(=O)C(=O)N[C@@H](C)c3ccccc3)c3ccccc3N2)c1      > 100 µM
 4  CCC1CN(C(=O)c2ccccc2)C(Cc2c[nH]c3ccccc23)C(=O)C1CC(=O)OC (stereo unspecified)      > 100 µM
 5  COC1=CC(c2ccc[nH]2)=N/C1=C\c1[nH]c(C)c(C(=O)CCCCC(=O)NC(C)(C)C)c1C         13 µM
 6  Nc1nc(SCCc2ccccc2)nc2nc3c(c(-c4ccccc4)c12)CCCC3      > 100 µM
 7  O=c1cccccc1[O-].O=c1cccccc1[O-].[O]=[U+2]=[O]      > 100 µM
 8  N#CC(=C1CCN(CCCC(=O)c2ccc(F)cc2)CC1)c1ccccc1      > 100 µM
 9  C1=CC=C2NCCCCCCCNC3=CC=CC=CC3=NCCCCCCCN=C2C=C1      > 100 µM
10  CC1=NN(c2cccc(Cl)c2)C2(SCC(=O)N2c2nc3ccccc3s2)/C1=C\c1cccs1 (stereo unspecified)       38.4 µM
11              O=C1NC(=S)N/C1=C\c1ccc(Br)s1      > 100 µM
12  COc1ccc(C(=O)c2sc(Nc3ccc(Cl)cc3)nc2N)cc1      > 100 µM
13     CCOC(=O)/C=C/n1c2ccccc2c(=O)c2ccccc21      > 100 µM
14  CC(=O)NNc1nc(C)c(C(=O)/C=C/c2ccccc2Cl)s1      > 100 µM
15  Cc1ccc(C(CC(=O)c2ccccc2)C2C(=O)NC(=O)NC2=O)cc1 (stereo unspecified)      > 100 µM
16  C=CCC1(O)c2ccccc2C(=O)c2c(NCCN(CC(=O)OCC)CC(=O)OCC)cccc21 (stereo unspecified)      > 100 µM
17          CCSc1nc2cccc([N+](=O)[O-])c2n1CC      > 100 µM
18  O=C1CSC(c2ccc([N+](=O)[O-])cc2)N1c1ccc(-n2c(-c3ccccc3)nc3ccccc3c2=O)cc1 (stereo unspecified)      > 100 µM
19  Nc1nc(SCc2ccc([N+](=O)[O-])cc2)nc2c1ncn2C1OC(CO)C(O)C1O (stereo unspecified)      > 100 µM
20  CC[C@]1(Cc2ccc(OC)c(OC)c2)C=[N+]([O-])O[C@H](OC2CCCC2(c2ccccc2)c2ccccc2)[C@@H]1OC(C)=O (stereo partly specified)       25.3 µM
21  COc1cc([C@@H]2c3cc4c(cc3[C@@H](OC(=O)c3ccc(N)cc3)C3COC(=O)[C@@H]32)OCO4)cc(OC)c1O (stereo partly specified)       > 95 µM
22      O=c1ccn([C@@H]2C[C@@H]2CO)c(=O)[nH]1      > 100 µM
23  O=C1c2cccc(NCCN=Cc3cc([N+](=O)[O-])ccc3O)c2C(=O)c2c(NCCN=Cc3cc([N+](=O)[O-])ccc3O)cccc21      > 100 µM
24   Clc1cc(Cl)cc(C=NC23CC4CC(CC(C4)C2)C3)c1       > 10 µM
25  CN(C)CCNC(=O)c1cc([N+](=O)[O-])cc2c1Oc1ccccc1O2      > 100 µM
26              O=C(O)c1cc2ccc3ccccc3c2oc1=O      > 100 µM
27  COC(=O)/C(=N\NC(=O)C[N+](C)(C)C)C(C(=O)OC)C(=O)C(=O)Nc1ccccc1C(N)=O (stereo unspecified)      > 100 µM
28       CCCCc1ccc(Nc2nc(SC)c3[nH]cnc3n2)cc1      > 100 µM
29  CC(=O)OCC1OC(c2nc3ccccc3s2)=CC(OC(C)=O)C1OC(C)=O (stereo unspecified)      > 100 µM
30  O=S(Nc1ccccc1)c1cccc(Cl)c1 (stereo unspecified)      > 100 µM
31    Cc1ccc(SSc2ccc(C)cc2C(=O)O)c(C(=O)O)c1      > 100 µM
32         NC(=O)c1cc2ccc(O)cc2oc1=Nc1ccccc1      > 100 µM
33  CC1OC(OC2C[C@](O)(C(=O)CF)Cc3c(O)c4c(c(O)c32)C(=O)c2ccccc2C4=O)CC(N)C1O (stereo partly specified)       4.64 µM
34  CCOC(=O)c1c2c(n(Cc3ccc(Cl)cc3Cl)c1C)-c1nc[nH]c1C(=O)C2=O       27.4 µM
35  O=c1ccn(C2CC(O)C(CO)O2)c(=O)[nH]1 (stereo unspecified)     > 5000 µM
36  CCOc1ccc(/C(Cl)=C(\C=O)c2ccc(OC)c(OC)c2)cc1OCC      > 100 µM
37  C=C1/C(=C\C=C2/CCC[C@]3(C)[C@@H]([C@H](C)CCCC(C)(C)O)CC[C@@H]23)C[C@@H](OC(=O)CBr)C[C@@H]1O       19.5 µM
38  COC(=O)c1sc(=S)sc1SCc1ccc(CSc2sc(=S)sc2C(=O)OC)cc1      > 100 µM
39     [N-]=[N+]=CC(=O)c1ccccc1C#CCCc1ccccc1       75.5 µM
40                   NCCSC(c1ccccc1)c1ccccc1       70.1 µM
